Tested on: M. smegmatis MC2155
Test: Deferred antagonism assay of producer strains
Assay type: cell-based, Mycobacterium smegmatis
Settings: L. lactis NZ9800 producer spotted (approx. 3 µl) on GM17 agar, incubated 40 h, overlaid with 0.75% agar seeded 0.5% with M. smegmatis MC2155; area of zone minus area of spot
Ends that are not written are not given here.
Quick reference: Deferred Antagonism Zone Area of the listed items.
Form entry: value (mm^2) — number only.

See these solved cases before continuing.
Nisin A (ITSISLCTPGCKTGALMGCNMKTATCHCSIHVSK; not fully specified; Lantibiotic nisin-A; UniProt P13068 24-57, looked up) [WT, 34 amino acid lantibiotic with three dehydrated amino acids and five thioether rings; hinge N20-M21-K22, reference compound] :: 51.31
NAI: nisin A derivative with hinge region NAI (ITSISLCTPGCKTGALMGCNAITATCHCSIHVSK; also: nisin-type thioether rings and dehydrated residues, not located; UniProt P13068 24-57, looked up, variant M21A K22I) :: 270.04
SLS: nisin A derivative with hinge region SLS (ITSISLCTPGCKTGALMGCSLSTATCHCSIHVSK; also: nisin-type thioether rings and dehydrated residues, not located; UniProt P13068 24-57, looked up, variant N20S M21L K22S) :: 230.31
AAA: nisin A derivative with hinge region consisting of AAA (rational design) (ITSISLCTPGCKTGALMGCAAATATCHCSIHVSK; not fully specified; also: nisin-type thioether rings and dehydrated residues, not located; UniProt P13068 24-57, looked up, variant N20A M21A K22A) :: 277.65

Now look at this entry.
[Q] Provide Deferred Antagonism Zone Area value for the following substance: SAA: nisin A derivative with hinge region consisting of SAA (rational design) (ITSISLCTPGCKTGALMGCSAATATCHCSIHVSK; also: nisin-type thioether rings and dehydrated residues, not located; UniProt P13068 24-57, looked up, variant N20S M21A K22A)
[A] 303.85
